assay: Toxicity liver stage against HepG2, at 10uM; assay type: cell-based; design: test concentration 10 uM, cell line HepG2-A16-CD81EGFP; details: human, HepG2-A16-CD81EGFP cells; read-out: INHIBITION
For each of the compounds below, state its cytotoxicity at 10 µM.
Give the value, in units of %, as a plain number.

Output cytotoxicity at 10 µM of CCc1cnc(C)nc1N(C)CCCc1cnn(C)c1 -10

Output cytotoxicity at 10 µM of CN(C)c1ncc(I)c(C2CCCCN2S(C)(=O)=O)n1 (configuration not stated) 5.09

Output cytotoxicity at 10 µM of Cc1cc(C)n(CC2CN(CC(=O)NC(C3CC3)C3CC3)CCO2)n1 (configuration not stated) -0.544

Output cytotoxicity at 10 µM of CC(C)c1nnc2sc(CC3CCS(=O)(=O)CC3)nn12 4.62

Output cytotoxicity at 10 µM of COc1cccc(CNCc2c(C)nn(C)c2N(C)C)c1 -2.51

Output cytotoxicity at 10 µM of Cc1nnc(NC(=O)NCc2ccc(N3CCOCC3)nc2)s1 -6.21

Output cytotoxicity at 10 µM of CN(Cc1nnc(C2CC2)n1C)S(=O)(=O)Cc1ccccc1F 16.8

Output cytotoxicity at 10 µM of O=C(c1ccoc1)N1CCC2(C1)CN(c1nccs1)C2 1.07

Output cytotoxicity at 10 µM of CCC(NC(=O)C(C)C)c1ccccc1C (configuration not stated) 5.81

Output cytotoxicity at 10 µM of O=C(CCc1ccccc1Br)N1CC(S(=O)(=O)C2CCCCC2)C1 -1.36

Output cytotoxicity at 10 µM of Cc1nn(C)c(C)c1CC(=O)N1CCC(N(C)c2cccnn2)CC1 -3.33

Output cytotoxicity at 10 µM of Cn1ccnc1CN1CCO[C@H]2C(CNC(=O)c3ccco3)CC[C@@H]21 (some centres not stated) 3.62

====

test: Toxicity liver stage against HepG2, at 10uM; assay type: cell-based; parameters: test concentration 10 uM, cell line HepG2-A16-CD81EGFP; details: human, HepG2-A16-CD81EGFP cells; read-out: INHIBITION
READOUT NAME: cytotoxicity at 10 µM (%)
Give the value, in units of %, as a plain number.

Output cytotoxicity at 10 µM of O=C(c1cccc2cccnc12)N1CCCC(n2ccnc2)C1 (stereo unspecified) -5.75

Output cytotoxicity at 10 µM of Cc1ccc(-c2nnc(SCC(=O)O)n2-c2ccc(C)cc2)cc1 -3.53

Output cytotoxicity at 10 µM of Cc1nonc1C(=O)N1CCc2c(ncn2CCc2ccccc2)C1 -0.207

Output cytotoxicity at 10 µM of COCc1cc(N(C)Cc2c(C)nn(C)c2C)n2nccc2n1 2.45

Output cytotoxicity at 10 µM of CC(C)NC(=O)C1CN(C(=O)Nc2cccc(F)c2)CC12CCOCC2 (stereo unspecified) -85.8

Output cytotoxicity at 10 µM of OCCC1CN(C2CCC2)CCN1C1CCCC1 (stereo unspecified) -18.5

Output cytotoxicity at 10 µM of CN1C[C@@H](C(=O)N2CCCOCC2)[C@@]2(CCc3ccccc3C(=O)N2)C1 8.64

Output cytotoxicity at 10 µM of Cc1nc2c(C#N)cnn2c(C)c1CCC(=O)N(C)C1CC1 -47.2

Output cytotoxicity at 10 µM of O=C(NCc1cnc2n1CCN(Cc1nccs1)CC2)C1CCC1 0.588

Output cytotoxicity at 10 µM of Cc1cccc(OCC2CCCN(C(=O)CCn3ccccc3=O)C2)c1 (stereo unspecified) -0.987

Output cytotoxicity at 10 µM of Cc1cc(C)n(CCCNC(=O)C(C)NC(=O)CC2CCCCC2)n1 (stereo unspecified) -1.06

These entries and their values trace back to ChEMBL document CHEMBL4513216.
